# SPOT intensity per record follows
# study-target: T1, Sla1-2, P32790
# T1 sequence (P32790 60-140, looked up): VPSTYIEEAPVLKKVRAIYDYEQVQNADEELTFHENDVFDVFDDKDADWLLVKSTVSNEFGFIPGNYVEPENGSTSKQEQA
# run-description: SPOT array
# applied-conditions: median of control spots 712

Examples with their reported SPOT intensity follow.
RKLRTVPGVPLIHLT 1
FLIKFTPKFPQSIDH 10
GLRRARYKFPGQQKI 1

Report measured SPOT intensity; entry is ATNVPVAPPPPPASL
0

Report measured SPOT intensity; entry is LKQRFFLMFPKSIIW
0

Report measured SPOT intensity; entry is RRLRDKYKLPIVDAD
0
